Data credit: PubChem BioAssay AID1195

# System: human maximum recommended daily dose, FDA database
# protocol summary: DSSTox (FDAMDD) FDA Maximum (Recommended) Daily Dose Database
# stated conditions: TherapeuticCategory: bactericide; active compounds read low
endpoint label: maximum recommended daily dose (mmol/kg-bw/day)

{"columns": ["smiles input", "measurement"],
 "data": [
  ["O=C(O)CC(O)(CC(=O)O)C(=O)O", 0.52]
]}

###

# System: human maximum recommended daily dose, FDA database
# protocol summary: DSSTox (FDAMDD) FDA Maximum (Recommended) Daily Dose Database
# stated conditions: TherapeuticCategory: anticonvulsant; active compounds read low
# From the text: The Food and Drug Administration (FDA) Center for Drug Evaluation and Research, Office of Pharmaceutical Science, Informatics and Computational Safety Analysis Staff's Maximum Recommended Daily Dose (FDAMDD) database contains values for over 1200 pharmaceuticals listed in Martindale: The Extra Pharmacopoeia (1973, 1983, and 1993) and The Physicians' Desk Reference (1995 and 1999). […]
Mark T for maximum recommended daily dose (mmol/kg-bw/day) under 0.2, F if at or over.

{"columns": ["compound", "study system", "class"],
 "data": [
  ["NC(=O)OCC(COC(N)=O)c1ccccc1", "human maximum recommended daily dose, FDA database", "F"],
  ["CCCC(CCC)C(N)=O", "human maximum recommended daily dose, FDA database", "F"],
  ["CCN1C(=O)NC(c2ccccc2)C1=O (stereo not given)", "human maximum recommended daily dose, FDA database", "F"],
  ["CCC1(C)CC(=O)NC1=O (stereo not given)", "human maximum recommended daily dose, FDA database", "T"],
  ["CN1C(=O)CC(C)(c2ccccc2)C1=O (stereo not given)", "human maximum recommended daily dose, FDA database", "T"],
  ["CN1C(=O)CC(c2ccccc2)C1=O (stereo not given)", "human maximum recommended daily dose, FDA database", "F"],
  ["Nc1nnc(-c2cccc(Cl)c2Cl)c(N)n1", "human maximum recommended daily dose, FDA database", "T"],
  ["NC(=O)NC(=O)Cc1ccccc1", "human maximum recommended daily dose, FDA database", "F"],
  ["O=C1CN=C(c2ccccc2Cl)c2cc([N+](=O)[O-])ccc2N1", "human maximum recommended daily dose, FDA database", "T"],
  ["CCC1(C)OC(=O)N(C)C1=O (stereo not given)", "human maximum recommended daily dose, FDA database", "F"],
  ["NCC1(CC(=O)O)CCCCC1", "human maximum recommended daily dose, FDA database", "T"],
  ["CCC1(CC)C(=O)NC(=O)N(C)C1=O", "human maximum recommended daily dose, FDA database", "T"],
  ["NS(=O)(=O)c1ccc(N2CCCCS2(=O)=O)cc1", "human maximum recommended daily dose, FDA database", "T"],
  ["CC[C@@H](C(N)=O)N1CCCC1=O", "human maximum recommended daily dose, FDA database", "F"],
  ["CCC1(c2ccccc2)C(=O)NCNC1=O", "human maximum recommended daily dose, FDA database", "T"],
  ["CN1C(=O)OC(C)(C)C1=O", "human maximum recommended daily dose, FDA database", "F"],
  ["Cc1ccsc1C(=CCCN1CCC[C@@H](C(=O)O)C1)c1sccc1C", "human maximum recommended daily dose, FDA database", "T"],
  ["C=CCN1C(=O)C(CC(C)C)NC1=S (stereo not given)", "human maximum recommended daily dose, FDA database", "T"],
  ["CCC1(c2ccccc2)NC(=O)N(C)C1=O (stereo not given)", "human maximum recommended daily dose, FDA database", "T"],
  ["CCC1(c2ccc(N)cc2)CCC(=O)NC1=O (stereo not given)", "human maximum recommended daily dose, FDA database", "T"]
]}

###

Known maximum recommended daily dose (mmol/kg-bw/day) of a selection of compounds
# System: human maximum recommended daily dose, FDA database
# protocol summary: DSSTox (FDAMDD) FDA Maximum (Recommended) Daily Dose Database
# stated conditions: TherapeuticCategory: anticonvulsant; antiepileptic; active compounds read low
endpoint label: maximum recommended daily dose (mmol/kg-bw/day)

{"columns": ["smiles input", "measurement"],
 "data": [
  ["CCCC(CCC)C(=O)O", 0.289],
  ["O=C1NC(=O)C(c2ccccc2)(c2ccccc2)N1", 0.0198]
]}

###

# Test system: human maximum recommended daily dose, FDA database
# protocol summary: DSSTox (FDAMDD) FDA Maximum (Recommended) Daily Dose Database
# stated conditions: TherapeuticCategory: adrenergic; active compounds read low
endpoint label: maximum recommended daily dose (mmol/kg-bw/day)

{"columns": ["compound", "measurement"],
 "data": [
  ["COc1ccc(OC)c(C(O)C(C)N)c1 (stereo not drawn)", 0.00158],
  ["C[C@H](N)[C@H](O)c1cccc(O)c1", 0.0498],
  ["CNC(C)(C)Cc1ccccc1", 0.00613]
]}

###

# Tested on: human maximum recommended daily dose, FDA database
# protocol summary: DSSTox (FDAMDD) FDA Maximum (Recommended) Daily Dose Database
# stated conditions: TherapeuticCategory: antidepressant; anticholinergic; active compounds read low
endpoint label: maximum recommended daily dose (mmol/kg-bw/day)

{"columns": ["smiles input", "measurement"],
 "data": [
  ["CCN(CC)CCOC(=O)C(O)(c1ccccc1)c1ccccc1", 0.000458]
]}

###

# Test system: human maximum recommended daily dose, FDA database
# protocol summary: DSSTox (FDAMDD) FDA Maximum (Recommended) Daily Dose Database
# stated conditions: TherapeuticCategory: experimental antiepileptic; active compounds read low
endpoint label: maximum recommended daily dose (mmol/kg-bw/day)

{"columns": ["smiles input", "measurement"],
 "data": [
  ["N[C@@H](CCC(=O)O)C(=O)O", 0.68]
]}

###

# Test system: human maximum recommended daily dose, FDA database
# protocol summary: DSSTox (FDAMDD) FDA Maximum (Recommended) Daily Dose Database
# stated conditions: TherapeuticCategory: hyperthyroidism; active compounds read low
endpoint label: maximum recommended daily dose (mmol/kg-bw/day)

{"columns": ["smiles input", "measurement"],
 "data": [
  ["N[C@@H](Cc1cc(I)c(Oc2cc(I)c(O)c(I)c2)c(I)c1)C(=O)O", "1.07e-05"]
]}

###

# System: human maximum recommended daily dose, FDA database
# protocol summary: DSSTox (FDAMDD) FDA Maximum (Recommended) Daily Dose Database
# stated conditions: TherapeuticCategory: antibacterial; active compounds read low
endpoint label: maximum recommended daily dose (mmol/kg-bw/day)

{"columns": ["molecule", "measurement"],
 "data": [
  ["CCCC(=O)O[C@H]1[C@H](C)O[C@@H](O[C@H]2[C@H](N(C)C)[C@@H](O)[C@H](O[C@H]3[C@@H](CC=O)C[C@@H](C)[C@@H](O)/C=C/C=C/C[C@@H](C)OC(=O)C[C@@H](O)[C@@H]3OC)O[C@@H]2C)C[C@@]1(C)OC(=O)CC", 0.0242],
  ["CO/N=C(/C(=O)N[C@@H]1C(=O)N2C(C(=O)O)=C(COC(N)=O)CS[C@H]12)c1ccco1", 0.0394],
  ["Cc1nnc(SCC2=C(C(=O)O)N3C(=O)[C@@H](NC(=O)Cn4cnnn4)[C@H]3SC2)s1", 0.147],
  ["CC1(C)S[C@@H]2[C@H](NC(=O)[C@H](NC(=O)N3CCN(S(C)(=O)=O)C3=O)c3ccccc3)C(=O)N2[C@H]1C(=O)O", 0.495],
  ["NC[C@@H]1O[C@H](O[C@H]2[C@@H](O)[C@H](O[C@@H]3[C@@H](O)[C@H](N)C[C@H](N)[C@H]3O[C@H]3O[C@H](CN)[C@@H](O)[C@H](O)[C@H]3N)O[C@@H]2CO)[C@H](N)[C@@H](O)[C@@H]1O", 0.163],
  ["Cc1cc(C)nc(NS(=O)(=O)c2ccc(N)cc2)n1", 0.18],
  ["COC1=C(C(=O)O)N2C(=O)[C@@H](NC(=O)[C@H](N)C3=CCC=CC3)[C@H]2SC1", 0.0911],
  ["CC(C)N=c1cc2n(-c3ccc(Cl)cc3)c3ccccc3nc-2cc1Nc1ccc(Cl)cc1", 0.00703],
  ["NC[C@@H]1O[C@H](O[C@H]2[C@@H](O)[C@H](O[C@@H]3[C@@H](O)[C@H](N)C[C@H](N)[C@H]3O[C@H]3O[C@H](CO)[C@@H](O)C[C@H]3N)O[C@@H]2CO)[C@H](N)[C@@H](O)[C@@H]1O[C@H]1O[C@H](CO)[C@@H](O)[C@H](O)[C@@H]1O", 0.0219],
  ["O=C(O)c1ccccc1C(=O)Nc1ccc(S(=O)(=O)Nc2nccs2)cc1", 0.496],
  ["NC(=O)c1cc[n+](CC2=C(C(=O)[O-])N3C(=O)[C@@H](NC(=O)C(c4ccccc4)S(=O)(=O)O)[C@H]3SC2)cc1 (stereo partly specified)", 0.188],
  ["NC(N)=NS(=O)(=O)c1ccc(N)cc1", 0.0934],
  ["CO/N=C(/C(=O)N[C@@H]1C(=O)N2C(C(=O)O)=C(COC(C)=O)CS[C@H]12)c1csc(N)n1", 0.439],
  ["NNC(=O)c1ccncc1", 0.0729],
  ["CN(C)CCn1nnnc1SCC1=C(C(=O)O)N2C(=O)[C@@H](NC(=O)Cc3csc(N)n3)[C@H]2SC1", 0.19],
  ["Cc1onc(-c2ccccc2Cl)c1C(=O)N[C@@H]1C(=O)N2[C@@H]1SC(C)(C)[C@@H]2C(=O)O", 0.0764],
  ["CCC(=O)O[C@@H]1CC(=O)O[C@H](C)C/C=C/C=C/[C@H](O[C@@H]2CC[C@H](N(C)C)[C@@H](C)O2)[C@H](C)C[C@H](CC=O)[C@H](O[C@@H]2O[C@H](C)[C@@H](O[C@H]3C[C@@](C)(O)[C@@H](O)[C@H](C)O3)[C@H](N(C)C)[C@H]2O)[C@H]1OC", 0.0742],
  ["COc1cccc(OC)c1C(=O)N[C@@H]1C(=O)N2[C@@H]1SC(C)(C)[C@@H]2C(=O)O", 0.526],
  ["COCC1=C(C(=O)OC(C)OC(=O)OC(C)C)N2C(=O)[C@@H](NC(=O)/C(=N\\OC)c3csc(N)n3)[C@H]2SC1 (stereo partly specified)", 0.0179],
  ["N[C@@H](C(=O)N[C@@H]1C(=O)N2C(C(=O)O)=C(Cl)CS[C@H]12)c1ccccc1", 0.068],
  ["COc1cc(NS(=O)(=O)c2ccc(N)cc2)nc(OC)n1", 0.107],
  ["CO/N=C(/C(=O)N[C@@H]1C(=O)N2C(C(=O)OC(C)OC(=O)C(C)(C)OC)=C(COC(N)=O)CS[C@H]12)c1ccco1 (stereo partly specified)", 0.0294],
  ["O=C(Cc1cccs1)N[C@@H]1C(=O)N2C(C(=O)[O-])=C(C[n+]3ccccc3)CS[C@H]12", 0.161],
  ["C/C=C\\C1=C(C(=O)O)N2C(=O)[C@@H](NC(=O)[C@H](N)c3ccc(O)cc3)[C@H]2SC1", 0.0429],
  ["CS(=O)(=O)c1ccc([C@@H](O)[C@@H](COC(=O)CN)NC(=O)C(Cl)Cl)cc1", 0.111],
  ["CCOc1ccc2ccccc2c1C(=O)N[C@@H]1C(=O)N2[C@@H]1SC(C)(C)[C@@H]2C(=O)O", 0.241],
  ["CO/N=C(\\C(=O)N[C@@H]1C(=O)N2C(C(=O)O)=C(CSc3nnnn3C)CS[C@H]12)c1csc(N)n1", 0.13],
  ["CCn1cc(C(=O)O)c(=O)c2cnc(N3CCNCC3)nc21", 0.0438],
  ["CC1=C(C(=O)O)N2C(=O)[C@@H](NC(=O)[C@H](N)c3ccc(O)cc3)[C@H]2SC1", 0.046],
  ["CC(Oc1ccccc1)C(=O)N[C@@H]1C(=O)N2[C@@H]1SC(C)(C)[C@@H]2C(=O)O (stereo partly specified)", 0.137],
  ["Cc1ccnc(NS(=O)(=O)c2ccc(N)cc2)n1", 0.252]
]}
